# Ki measurements, system: Vasopressin V1b receptor (Homo sapiens, UniProt P47901)
# Sequence (P47901 whole entry): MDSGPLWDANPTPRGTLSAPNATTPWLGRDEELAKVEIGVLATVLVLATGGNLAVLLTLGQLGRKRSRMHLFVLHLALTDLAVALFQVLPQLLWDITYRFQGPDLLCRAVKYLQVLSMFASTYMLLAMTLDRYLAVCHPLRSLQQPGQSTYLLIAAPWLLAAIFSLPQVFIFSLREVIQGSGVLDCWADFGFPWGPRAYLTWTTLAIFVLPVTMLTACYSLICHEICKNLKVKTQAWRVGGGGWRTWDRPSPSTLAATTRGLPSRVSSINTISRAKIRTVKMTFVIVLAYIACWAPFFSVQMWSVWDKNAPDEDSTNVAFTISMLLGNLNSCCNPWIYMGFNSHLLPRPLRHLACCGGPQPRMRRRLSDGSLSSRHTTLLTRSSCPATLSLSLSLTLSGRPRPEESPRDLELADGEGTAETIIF
experimental-readout: Ki (nM)

Sample records with Ki:
{"compound": "CCOc1ccc(OC)cc1C1(N2CCN(c3ccncc3)CC2)C(=O)N(S(=O)(=O)c2ccc(OC)cc2OC)c2ccc(C#N)cc21 (stereo unspecified)", "Ki [nM]": 21}
{"compound": "CCOc1cc(OC)ccc1C1(N2CCN(c3ccncc3)CC2)C(=O)N(S(=O)(=O)c2ccc(OC)cc2OC)c2ccc(C#N)cc21 (stereo unspecified)", "Ki [nM]": 10}

[A] COc1ccc(S(=O)(=O)N2C(=O)C(c3ccccc3OC)(N3CCN(c4ccncc4)CC3)c3cc(C#N)ccc32)c(OC)c1 (stereo unspecified)
[B] CCOc1ncccc1C1(N2CCN(c3ccncc3)CC2)C(=O)N(S(=O)(=O)c2ccc(OC)cc2OC)c2ccc(C#N)cc21 (stereo unspecified)
[C] CCOc1ccc(OC)cc1C1(N2CCN(c3ccncc3)CC2)C(=O)N(S(=O)(=O)c2ccc(OC)c3cccnc23)c2ccc(C#N)cc21 (stereo unspecified)
[D] COc1ncccc1C1(N2CCN(c3cccnc3)CC2)C(=O)N(S(=O)(=O)c2cccc3cccnc23)c2ccc(Cl)cc21 (stereo unspecified)
[E] COc1ccccc1C1(N2CCN(c3cccnc3)CC2)C(=O)N(S(=O)(=O)c2ccccc2)c2ccc(Cl)cc21 (stereo unspecified)
input: Exam item: list the entries in increasing order of Ki. To answer, arrange all of the labels according to the requested order.
output: C, D, A, B, E
(C: 2 nM, D: 15.2 nM, A: 58.5 nM, B: 84 nM, E: 233 nM)

---

procedure-text: Oral bioavailability in rat at 5 mg/kg
Assay type: ADME, organism-based
measurement-conditions: in vivo
experimental-readout: bioavailability (%)
Number only, in %; omit the unit.

input: Recorded bioavailability for CCOc1nc(Cl)ccc1C1(N2CCN(c3ccnc(C)c3)CC2)C(=O)N(S(=O)(=O)c2ccc(OC)cn2)c2ccc(C#N)cc21 (single isomer, unassigned; (+)) , please?
output: 37

---

procedure-text: Clearance in rat plasma at 2 mg/kg, iv
Type: ADME, organism-based
experimental-readout: clearance (L/h/kg)

{"compound": "CCOc1nc(Cl)ccc1C1(N2CCN(c3ccnc(C)c3)CC2)C(=O)N(S(=O)(=O)c2ccc(OC)cn2)c2ccc(C#N)cc21 (single isomer, unassigned; (+))", "quantity-unit": "L/h/kg", "clearance": 0.9}

[1] CCOc1ccc(OC)cc1C1(N2CCN(c3ccncc3)CC2)C(=O)N(S(=O)(=O)c2ccc(OC)cc2OC)c2ccc(C#N)cc21 (stereo not drawn)
[2] CCOc1ccc(OC)cc1C1(N2CCN(c3ccncc3)CC2)C(=O)N(S(=O)(=O)c2cccc3cccnc23)c2ccc(C#N)cc21 (stereo not drawn)
input: From the recorded data, which exceeds the other in clearance: 1 or 2 ? // output: label of the selected item
output: 2
(2: 2.8 L/h/kg, 1: 0.7 L/h/kg)

---

procedure-text: Intrinsic clearance in rat liver microsomes
Assay type: ADME, microsome
measurement-conditions: read-out: CLH
experimental-readout: microsomal CLint (µL/min/mg)

{"molecule": "COc1ccccc1C1(N2CCN(c3cccnc3)CC2)C(=O)N(S(=O)(=O)c2ccccc2OC)c2ccc(Cl)cc21 (centres undefined)", "microsomal CLint (µL/min/mg)": 442}
{"molecule": "COc1ncccc1C1(N2CCN(c3cccnc3)CC2)C(=O)N(S(=O)(=O)c2cccc3cccnc23)c2ccc(Cl)cc21 (centres undefined)", "microsomal CLint (µL/min/mg)": 156}

[a] CCOc1ccc(OC)cc1C1(N2CCN(c3ccncc3)CC2)C(=O)N(S(=O)(=O)c2cccc3cccnc23)c2ccc(C#N)cc21 (centres undefined)
[b] CCOc1ccc(OC)cc1C1(N2CCN(c3ccncc3)CC2)C(=O)N(S(=O)(=O)c2ccc(OC)cc2)c2ccc(C#N)cc21 (centres undefined)
input: Would you mind telling me which has the lower recorded microsomal CLint between a and b ? // output: label of the selected item
output: b
(b: 118 µL/min/mg, a: 210 µL/min/mg)
